Molecular target: T1, recombinant mouse MAdCAM-1 (mouse, UniProt Q61826 22-364, limits assumed)
T1 construct: also called mMAdCAM-1
T1 sequence (looked up): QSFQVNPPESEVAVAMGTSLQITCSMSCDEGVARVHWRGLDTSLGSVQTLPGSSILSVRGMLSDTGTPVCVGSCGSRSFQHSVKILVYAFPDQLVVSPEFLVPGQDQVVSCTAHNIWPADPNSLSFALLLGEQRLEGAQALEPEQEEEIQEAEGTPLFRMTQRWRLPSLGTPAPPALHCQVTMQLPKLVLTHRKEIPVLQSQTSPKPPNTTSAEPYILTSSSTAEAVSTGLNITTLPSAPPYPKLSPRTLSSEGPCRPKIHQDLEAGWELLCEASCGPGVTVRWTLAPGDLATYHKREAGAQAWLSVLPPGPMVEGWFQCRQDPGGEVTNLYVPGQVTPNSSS
Assay: Octet
PROPERTY_LABEL: binding result

Field: example entries. Status: answers known.
MAdCAM antibody Table 1 clone 19 (scFv) scFv: EVQLLESGGGLVQPGGSLRLSCAASGFTFDDYAMHWVRQAPGKGLEWVSGISWNSGSIGYADSVKGRFTISRDNSKNTLYLQMNSLRAEDTAVYYCAKDIVAAGHYYYGMDVWGQGTTVTVSSGGGGSGGGGSGGGGSGGGGSDIQMTQSPSSLSASVGDRVTITCQASQDISNYLNWYQQKPGKAPKLLIYDASNLETGVPSRFSGSGSGTDFTLTISSLQPEDFATYYCQQSYSTPLTFGGGTKVEIK: no binding
MAdCAM antibody Table 1 clone 4 (scFv) scFv: QVQLVQSGAEVKKPGASVKVSCKASGGTFSSYAISWVRQAPGQGLEWMGSINPSGDTTSYAQKFQGRVTMTRDTSTSTVYMELSSLRSEDTAVYYCAKDKAQWLVGYFDYWGQGTLVTVSSGGGGSGGGGSGGGGSGGGGSDIQMTQSPSSLSASVGDRVTITCQASQDISNSLNWYQQKPGKAPKLLIYAASSLQSGVPSRFSGSGSGTDFTLTISSLQPEDFATYYCQQSYSSVITFGQGTKVEIK: binds
MAdCAM antibody Table 1 clone 63 (scFv) scFv: EVQLLESGGGLVKPGGSLRLSCAASGFTFDDYAMHWVRQAPGKGLEWVASITSSSAFIDYAASVKGRFTISRDDSKNTLYLQMNSLKTEDTAVYYCARERVDWNSYFDLWGRGTLVTVSSGGGGSGGGGSGGGGSGGGGSEIVMTQSPATLSVSPGERATLSCRASQGISNSYLAWYQQKPGQAPRLLIYGASTRATGIPARFSGSGSGTEFTLTISSLQSEDFAVYYCQQYYTYPPTFGPGTKVDIK: binds
MAdCAM antibody Table 1 clone 23 (scFv) scFv: EVQLLESGGGLVQPGGSLRLSCAASGFTFSSYAMHWVRQAPGKGLEWVSGISGSGGSAYYADSVKGRFTISRDNSKNTLYLQMNSLRAEDTAVYYCATSQAPVDYYYYGMDVWGQGTTVTVSSGGGGSGGGGSGGGGSGGGGSDIQMTQSPSSLSASVGDRVTITCRASQSISSWLAWYQQKPGKAPKLLIYAASNLQRGVPSRFSGSGSGTDFTLTISSLQPEDFATYYCQQSYSIPITFGQGTKVEIK: no binding
MAdCAM antibody Table 1 clone 20 (scFv) scFv: EVQLLESGGGLVQPGGSLRLSCAASGFTFDDYAMHWVRQAPGKGLEWVSYIDTSSSHLYYADSVKGRFTISRDNSKNTLYLQMNSLRAEDTAVYYCARDEAAAGYYGMDVWGQGTTVTVSSGGGGSGGGGSGGGGSGGGGSDIQMTQSPSSLSASVGDRVTITCQAGQDISNYLNWYQQKPGKAPKLLIYDASNLETGVPSRFSGSGSGTDFTLTISSLQPEDFATYYCQQTYSTPITFGQGTKLEIK: no binding
MAdCAM antibody Table 1 clone 6 (scFv) scFv: EVQLLESGGGLVQPGGSLRLSCAASGFTFNNYAFHWVRQAPGKGLEWVSRINSYGTSTTYADSVKGRFTISRDNSKNTLYLQMNSLRAEDTAVYYCAREGPVAGYWYFDLWGQGTLVTVSSGGGGSGGGGSGGGGSGGGGSDIQMTQSPSSLSASVGDRVTITCRASQIIGTNLAWYQQKPGKAPKLLIYGASSLQSGVPSRFSGSGSGTDFTLTISSLQPEDFATYYCQQSYRLPFTFGQGTKVEIK: no binding
MAdCAM antibody Table 1 clone 5 (scFv) scFv: EVQLLESGGGLVQPGGSLRLSCAASGFTFSSYWMHWVRQAPGKGLEWVSSISPGGSNIDYADSVKGRFTISRDNSKNTLYLQMNSLRAEDTAVYYCAREVQLSHYDYWGQGTLVTVSSGGGGSGGGGSGGGGSGGGGSDIQMTQSPSSLSASVGDRVTITCRASQGISNSLAWYQQKPGKAPKLLIYGASSLQSGVPSRFSGSGSGTDFTLTISSLQPEDFATYYCQQANSFPFTFGQGTKVEIK: binds
MAdCAM antibody Table 1 clone 2 (scFv) scFv: QVQLVQSGAEVKKPGASVKVSCKASGYPFIGYYLHWVRQAPGQGLEWMGIINPSGGSTSYAQKFQGRVTMTRDTSTSTVYMELSSLRSEDTAVYYCAREGRLSYGMDAWGQGTLVTVSSGGGGSGGGGSGGGGSGGGGSDIQMTQSPSSLSASVGDRVTITCRASQSISSYLAWYQQKPGKAPKLLIYGASTLESGVPSRFSGSGSGTDFTLTISSLQPEDFATYYCQQTWGPPFTFGQGTKLEIK: binds

// switching to the query binder
The recorded binding result for MAdCAM antibody Table 1 clone 59 (scFv) scFv: EVQLLESGGGLVQPGGSLRLSCAASGFTFSDFWMHWVRQAPGKGLEWISYISGDSGYTNYADSVKGRFTISRDNSKNTLYLQMNSLRAEDTAVYYCARDRPYYYYMDVWGKGTTVTVSSGGGGSGGGGSGGGGSGGGGSDIQMTQSPSSLSASVGDRVTITCRASQSVSRSLAWYQQKPGKAPKLLIYAASSLQSGVPSRFSGSGSGTDFTLTISSLQPEDFATYYCQQYKSYPVTFGQGTKVEIK is binds
